FYI, the data here is from paper PMC10988713.

# system_under_test: HsHAD (Homo sapiens)
# Construct: gene HADH; N-terminal His6 tag in pET28a, E. coli BL21(DE3) pLysS, dimer of 35 kDa subunits
# Sequence (Q16836 13-314): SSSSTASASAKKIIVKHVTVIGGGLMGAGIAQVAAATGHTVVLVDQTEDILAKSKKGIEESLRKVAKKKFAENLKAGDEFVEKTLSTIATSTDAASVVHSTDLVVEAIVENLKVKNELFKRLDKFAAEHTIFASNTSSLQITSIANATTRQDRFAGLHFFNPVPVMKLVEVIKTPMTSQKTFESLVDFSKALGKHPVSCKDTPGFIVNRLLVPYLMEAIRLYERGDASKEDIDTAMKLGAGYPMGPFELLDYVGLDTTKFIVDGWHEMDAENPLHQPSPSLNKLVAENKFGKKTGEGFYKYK
# procedure_summary: stopped-flow tryptophan fluorescence, koff/kon
# Assay type: binding
assay_readout: pKd
The read-out pKd is expressed as -log10 of concentration in moles per litre.

Quick check: pKd of "NC(=O)c1ccc[n+]([C@@H]2O[C@H](COP(=O)(O)OP(=O)(O)OC[C@H]3O[C@@H](n4cnc5c(N)ncnc54)[C@H](O)[C@@H]3O)[C@@H](O)[C@H]2O)c1" ?
5.22

* * *

# system_under_test: BCDE (Rattus norvegicus)
# Construct: gene Ehhadh; truncated RnMFE1 from Ala260 (ASGQ) to the C-terminus, without domain A (ECH part); N-terminal His6 tag, E. coli BL21(DE3) pLysS
# Sequence (P07896 260-722): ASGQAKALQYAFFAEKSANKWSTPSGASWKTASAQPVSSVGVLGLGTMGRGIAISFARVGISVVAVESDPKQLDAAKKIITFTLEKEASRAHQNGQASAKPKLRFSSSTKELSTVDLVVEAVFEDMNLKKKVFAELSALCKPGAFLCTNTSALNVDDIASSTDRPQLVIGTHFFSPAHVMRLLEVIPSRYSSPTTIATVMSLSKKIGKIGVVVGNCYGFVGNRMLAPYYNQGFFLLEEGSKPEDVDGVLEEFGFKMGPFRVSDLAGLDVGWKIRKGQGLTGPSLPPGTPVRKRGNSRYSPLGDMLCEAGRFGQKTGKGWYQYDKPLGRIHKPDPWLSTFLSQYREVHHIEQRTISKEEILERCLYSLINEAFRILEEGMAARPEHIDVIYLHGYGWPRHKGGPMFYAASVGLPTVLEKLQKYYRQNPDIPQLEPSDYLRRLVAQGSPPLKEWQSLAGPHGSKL
# procedure_summary: stopped-flow NADH fluorescence, koff/kon
# Format: binding
# Text: stopped-flow NADH fluorescence, koff/kon on BCDE
assay_readout: pKd
Value format note: pKd is -log10 of concentration (mol/L); just state the number.

Quick one: pKd of "NC(=O)C1=CN([C@@H]2O[C@H](COP(=O)(O)OP(=O)(O)OC[C@H]3O[C@@H](n4cnc5c(N)ncnc54)[C@H](O)[C@@H]3O)[C@@H](O)[C@H]2O)C=CC1" ?
5.24
